System: FCK cells
STUDY CONDITIONS: read-out: CC50 FCK; FCK cells
READOUT NAME: CC50 (µM)

MOLECULE | CENSORING OPERATOR | RESULT
NC(=O)CC1NC(=O)C(N)C(O)c2ccc(c(Cl)c2)Oc2cc3cc(c2O)Oc2ccc(cc2)C(O)C2NC(=O)C(NC(=O)C3NC1=O)c1ccc(O)c(c1)-c1c(O)cc(O)cc1C(C(=O)N1CCC3CCCCC3C1)NC2=O (stereo not shown) | > | 300
NC1C(=O)NC2Cc3ccc(c(Cl)c3)Oc3cc4cc(c3O)Oc3ccc(cc3Cl)C(O)C3NC(=O)C(NC(=O)C4NC(=O)C(NC2=O)c2cc(O)cc(c2)Oc2cc1ccc2O)c1ccc(O)c(c1)-c1c(O)cc(O)cc1C(C(=O)O)NC3=O (stereo not shown) | = | 85
CCCCc1ccc(CN2CCN(C(=O)C3NC(=O)C4NC(=O)C(NC(=O)C5NC(=O)C6NC(=O)C(Cc7ccc(c(Cl)c7)Oc7cc5cc(c7O)Oc5ccc(cc5Cl)C4O)NC(=O)C(N)c4ccc(O)c(c4)Oc4cc(O)cc6c4)c4ccc(O)c(c4)-c4c(O)cc(O)cc43)CC2)cc1 (stereo not shown) | = | 17
NC(=O)CC1NC(=O)C(N)C(O)c2ccc(c(Cl)c2)Oc2cc3cc(c2O)Oc2ccc(cc2)C(O)C2NC(=O)C(NC(=O)C3NC1=O)c1ccc(O)c(c1)-c1c(O)cc(O)cc1C(C(=O)NCc1ccc(F)cc1)NC2=O (stereo not shown) | > | 300
